# target-of-assay: BRD4 (Homo sapiens)
# Construct: BD1 (BRD4(1), first bromodomain)
# assay-comment: BROMOscan bromodomain competition binding assay with qPCR readout
assay-readout: Kd
Include the unit right after the number.

Ask: Record request: Kd value, item COc1cc2c(cc1-c1c(C)nn(C)c1C)ncc1nc(C)n([C@H](C)c3ccccc3)c12 [YL10]
Reply: 480 nM
